Assay: Pharmacokinetics after intravenous dosing in dogs (plasma concentration by LC-MS/MS)
Assay type: in vivo
Details: beagle, dog, dogs (beagles), 0.5 mg/kg intravenous, 24.00 hours
MEASURED QUANTITY: concentration at 24 h (nM)
Answers are plain numbers, in nM.

# lookup: concentration at 24 h of "COc1ccc(-c2ccc(C(C)(C)NC(=O)c3cnc(-c4cccnn4)nc3O)cn2)cc1"
23

* * *

Assay: Pharmacokinetics after intravenous dosing in dogs (plasma concentration by LC-MS/MS)
Type: in vivo
Settings: beagle, dog, dogs (beagles), 0.5 mg/kg intravenous, read-out: T ½ (converted)
Protocol: The pharmacokinetics and cytochrome P450 activity of Example 1 (E-1) were evaluated, and compared to that of Example 187 disclosed in International PCT application PCT/US09/036,501, filed Mar. 9, 2009. Compounds were formulated in a 1:1 solution (by volume) of PEG200: water and dosed at 0.5 mg/kg of body weight. […] The plasma concentrations shown in the table below were determined by protein precipitation followed by liquid chromatography—tandem mass spectrometry analysis.
MEASURED QUANTITY: half-life (h)
Give bare numbers, in h.

Name the recorded half-life for "COc1ccc(-c2ccc(C(C)(C)NC(=O)c3cnc(-c4cccnn4)nc3O)cn2)cc1" .
4.09

* * *

Test: Pharmacokinetics after intravenous dosing in dogs (plasma concentration by LC-MS/MS)
Format: in vivo
Conditions: beagle, dog, dogs (beagles), 0.5 mg/kg intravenous, 0.25 hours
MEASURED QUANTITY: concentration at 0.25 h (nM)
Give bare numbers, in nM.

Looking for the measured concentration at 0.25 h of "COc1ccc(-c2ccc(C(C)(C)NC(=O)c3cnc(-c4cccnn4)nc3O)cn2)cc1" , can you help?
1150

* * *

Assay: Pharmacokinetics after intravenous dosing in dogs (plasma concentration by LC-MS/MS)
Assay type: in vivo
Conditions: beagle, dog, dogs (beagles), 0.5 mg/kg intravenous, 6.00 hours
MEASURED QUANTITY: concentration at 6 h (nM)
Give bare numbers, in nM.

Form field: reported concentration at 6 h of COc1ccc(-c2ccc(C(C)(C)NC(=O)c3cnc(-c4cccnn4)nc3O)cn2)cc1 [Example 1]
374

* * *

Assay: Pharmacokinetics after intravenous dosing in dogs (plasma concentration by LC-MS/MS)
Type: in vivo
Settings: beagle, dog, dogs (beagles), 0.5 mg/kg intravenous, 0.08 hours
MEASURED QUANTITY: concentration at 0.08 h (nM)
Give bare numbers, in nM.

Item under review: "COc1ccc(-c2ccc(C(C)(C)NC(=O)c3cnc(-c4cccnn4)nc3O)cn2)cc1" . Reported concentration at 0.08 h?
1500

* * *

Assay: Pharmacokinetics after intravenous dosing in dogs (plasma concentration by LC-MS/MS)
Type: in vivo
Conditions: beagle, dog, dogs (beagles), 0.5 mg/kg intravenous, 8.00 hours
MEASURED QUANTITY: concentration at 8 h
Report the figure along with its unit, number first.

Consider the compound shown here: "COc1ccc(-c2ccc(C(C)(C)NC(=O)c3cnc(-c4cccnn4)nc3O)cn2)cc1" What is its recorded concentration at 8 h?
475 nM

* * *

Assay: Pharmacokinetics after intravenous dosing in dogs (plasma concentration by LC-MS/MS)
Assay type: in vivo
Conditions: beagle, dog, dogs (beagles), 0.5 mg/kg intravenous, 2.00 hours
MEASURED QUANTITY: concentration at 2 h (nM)
One number for each entry, in nM.

Return reported concentration at 2 h; argument: COc1ccc(-c2ccc(C(C)(C)NC(=O)c3cnc(-c4cccnn4)nc3O)cn2)cc1 [Example 1]
754

* * *

Target: UniProtKB P08684
Sequence (P08684 whole entry): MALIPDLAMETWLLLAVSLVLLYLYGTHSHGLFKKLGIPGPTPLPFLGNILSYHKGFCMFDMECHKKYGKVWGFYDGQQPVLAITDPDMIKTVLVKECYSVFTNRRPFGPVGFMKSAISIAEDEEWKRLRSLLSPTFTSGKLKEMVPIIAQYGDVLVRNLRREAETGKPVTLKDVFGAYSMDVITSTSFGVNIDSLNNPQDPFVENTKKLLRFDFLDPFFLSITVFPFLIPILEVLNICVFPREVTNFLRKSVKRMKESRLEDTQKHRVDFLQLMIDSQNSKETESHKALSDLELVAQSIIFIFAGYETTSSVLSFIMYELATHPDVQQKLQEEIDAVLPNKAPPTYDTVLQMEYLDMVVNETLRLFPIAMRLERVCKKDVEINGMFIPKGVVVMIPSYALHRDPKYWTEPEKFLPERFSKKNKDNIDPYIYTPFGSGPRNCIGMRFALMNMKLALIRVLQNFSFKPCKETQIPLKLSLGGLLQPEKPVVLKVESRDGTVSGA
MEASURED QUANTITY: IC50

Name the reported IC50 value associated with the compound COc1ccc(-c2ccc(C(C)(C)NC(=O)c3cnc(-c4cccnn4)nc3O)cn2)cc1 [Example 1]
> 50 µM

* * *

Test: Pharmacokinetics after intravenous dosing in dogs (plasma concentration by LC-MS/MS)
Type: in vivo
Details: beagle, dog, dogs (beagles), 0.5 mg/kg intravenous, 4.00 hours
MEASURED QUANTITY: concentration at 4 h
Write the numeric value and follow it with the unit.

Form field: reported concentration at 4 h of "COc1ccc(-c2ccc(C(C)(C)NC(=O)c3cnc(-c4cccnn4)nc3O)cn2)cc1"
581 nM

* * *

Test: Pharmacokinetics after intravenous dosing in dogs (plasma concentration by LC-MS/MS)
Format: in vivo
Conditions: beagle, dog, dogs (beagles), 0.5 mg/kg intravenous, 0.50 hours
MEASURED QUANTITY: concentration at 0.5 h
Number first, unit second: that is the form wanted.

I would be grateful if you could share the reported concentration at 0.5 h for COc1ccc(-c2ccc(C(C)(C)NC(=O)c3cnc(-c4cccnn4)nc3O)cn2)cc1 [Example 1] .
1110 nM
